Tested on: CD2F1 mice, L1210 leukemia ip, survival T/C
Assay: NCI In Vivo Anticancer Drug Screen. Data for tumor model L1210 Leukemia (intraperitoneal) in CD2F1 (CDF1) mice
Conditions: endpoint: mean survival time; dose: 300.0 mg/kg/injection; schedule: Q01DX001 (ip); vehicle: other; higher = longer survival
Toxic doses and inconclusive results are not listed.
observation-type: T/C

Example molecules with recorded T/C:
molecule: Cc1ccc(S(=O)(=O)OC2CCCCC2c2cccc(Cl)c2)cc1 (stereo unspecified)
T/C: 101 % of control

molecule: O=C1CSC(=S)N1/N=C/c1cc2c(cc1[N+](=O)[O-])OCO2
T/C: 90 % of control

molecule: CCOC(=O)C(C(C)=O)C1=C(Cl)C(=O)c2ccccc2C1=O (stereo unspecified)
T/C: 92 % of control

molecule: Clc1ccc(C#Cc2ccc(Cl)cc2)cc1
T/C: 88 % of control

molecule: Cc1ccc(C2CC(c3ccccc3)=NN2C)cc1 (stereo unspecified)
T/C: 93 % of control

// query Find the measured T/C of CCN(CC)CCC(CN(C)C)C(C)=O (stereo unspecified) and report it.
// result 96 % of control

====

# key: entry, value: T/C
Test system: CD2F1 mice, L1210 leukemia ip, survival T/C
Experiment: NCI In Vivo Anticancer Drug Screen. Data for tumor model L1210 Leukemia (intraperitoneal) in CD2F1 (CDF1) mice
Conditions: endpoint: mean survival time; dose: 25.0 mg/kg/injection; schedule: Q01DX001 (ip); vehicle: saline with Tween-80; higher = longer survival
Toxic doses and inconclusive results are not listed.

chem-smiles: CCCP(=O)(CCC)CCC
data-value: 94 % of control
//
chem-smiles: CCC1(c2ccccc2)C(=O)N(Cl)C(=O)N(Cl)C1=O
data-value: 101 % of control
//
chem-smiles: NNC(=O)Nc1ccccc1
data-value: 97 % of control

// query Find the measured T/C of "O=[N+]([O-])c1ccc(Cn2cc[n+](Cc3ccc([N+](=O)[O-])cc3)c2)cc1" and report it.
// result 108 % of control

// query Find the measured T/C of "O=C1C(Cl)=C(NCc2ccccc2Cl)C(=O)c2ccccc21" and report it.
// result 108 % of control

====

# key: entry, value: T/C
System: CD2F1 mice, L1210 leukemia ip, survival T/C
Assay: NCI In Vivo Anticancer Drug Screen. Data for tumor model L1210 Leukemia (intraperitoneal) in CD2F1 (CDF1) mice
Details: endpoint: mean survival time; dose: 12.5 mg/kg/injection; schedule: Q04DX002 (ip); vehicle: saline with Tween-80; higher = longer survival
Inconclusive results and toxic doses are left out.

Example compounds with recorded T/C:
chem-smiles: Cc1ccc(C(C)C)c(OCC[N+]2(CCOc3cc(C)ccc3C(C)C)CC=CC2)c1
data-value: 94 % of control
//
chem-smiles: N#[O+].O=[N+]([O-])O.[Co].[NH2-].[NH2-].[NH2-].[NH2-].[NH2-]
data-value: 88 % of control
//
chem-smiles: CCOC(=O)/C(O)=C\c1cc(OC)nnc1Cl
data-value: 114 % of control

# next compound below
// query Find the measured T/C of "NC(CS)=NC1CCCCC1" and report it.
// result 104 % of control

====

# key: entry, value: T/C
System: CD2F1 mice, L1210 leukemia ip, survival T/C
Assay: NCI In Vivo Anticancer Drug Screen. Data for tumor model L1210 Leukemia (intraperitoneal) in CD2F1 (CDF1) mice
Conditions: endpoint: mean survival time; dose: 3.13 mg/kg/injection; schedule: Q01DX009 (ip); vehicle: saline with Tween-80; higher = longer survival
Toxic doses and inconclusive results are not listed.

compound: COC1CC2C[CH]([Hg][Cl])C1C2 (centres undefined)
observation-type: T/C
data-value: 97 % of control

// query Find the measured T/C of CC(=O)OCC1OC(OC2C(COC(C)=O)OC(Sc3ccccc3)C(OC(C)=O)C2OC(C)=O)C(OC(C)=O)C(OC(C)=O)C1OC(C)=O (centres undefined) and report it.
// result 101 % of control

// query Find the measured T/C of O=NN(CCF)C(=O)NC1CCC(NC(=O)N(CCF)N=O)CC1 (centres undefined) and report it.
// result 117 % of control

// query Find the measured T/C of "CC1=NN(c2ccccc2)C(=O)/C1=C/N(C)C" and report it.
// result 103 % of control

====

# key: entry, value: T/C
Test system: CD2F1 mice, L1210 leukemia ip, survival T/C
Experiment: NCI In Vivo Anticancer Drug Screen. Data for tumor model L1210 Leukemia (intraperitoneal) in CD2F1 (CDF1) mice
Settings: endpoint: mean survival time; dose: 400.0 mg/kg/injection; schedule: Q01DX001 (ip); vehicle: saline; higher = longer survival
Toxic doses and inconclusive results are not listed.

Example compounds with recorded T/C:
compound: C(=C\c1nnnn1C12CC3CC(CC(C3)C1)C2)/c1ccccc1
data-value: 96 % of control
//
compound: Cc1nc(-c2ccccc2)[nH]c(=O)c1Cc1cc2c(cc1O)OCC2
data-value: 100 % of control
//
compound: CN(C(=O)Nc1cccc([N+](=O)[O-])c1)c1ccccc1
data-value: 98 % of control
//
compound: CN(C)/C(N)=N\c1nc(O)cc(=O)[nH]1
data-value: 96 % of control

// query Find the measured T/C of "Cc1nc(N)[nH]c(=O)c1CCCNS(=O)(=O)c1ccc(CN)cc1" and report it.
// result 100 % of control

// query Find the measured T/C of "CN1CN(C2CCCCC2)CSC1=S" and report it.
// result 102 % of control

// query Find the measured T/C of "CCCOS(=O)(=O)O" and report it.
// result 106 % of control

====

# key: entry, value: T/C
System: CD2F1 mice, L1210 leukemia ip, survival T/C
Assay: NCI In Vivo Anticancer Drug Screen. Data for tumor model L1210 Leukemia (intraperitoneal) in CD2F1 (CDF1) mice
Settings: endpoint: mean survival time; dose: 12.5 mg/kg/injection; schedule: Q01DX009 (ip); vehicle: saline with Tween-80; higher = longer survival
Experimental: The antitumor activity of compounds was measured in mice bearing transplantable tumors. Survival or tumor size were measured and the results are expressed as the measurement made in the treated group (T) divided by the measurement made in the vehicle treated control group (C). The tumor model used in this assay is L1210 Leukemia (intraperitoneal) in CD2F1 (CDF1) mice
Inconclusive results and toxic doses are left out.

Example compounds with recorded T/C:
compound: CCCCCCCCCCNC(=O)C[n+]1cccc(C(=O)N(CC)CC)c1
data-value: 97 % of control

compound: O=C(O[Si](Cc1ccccc1)(Cc1ccccc1)Cc1ccccc1)N(CCCl)CCCl
data-value: 103 % of control

compound: Cc1[nH]c(=O)[nH]c(=O)c1NC(=O)c1ccccc1[N+](=O)[O-]
data-value: 98 % of control

compound: CC1=C2C(=O)[C@H]3[C@@H](CC=C4C[C@@H](O)CC[C@@]43C)[C@@H]2CC[C@]12O[C@@H]1C[C@H](C)CN[C@H]1[C@H]2C
data-value: 100 % of control

compound: O=c1[nH]c2ccccc2nc1CBr
data-value: 113 % of control

compound: COc1ccc2nc3cc(Cl)ccc3c(NCCNCCNCCNc3c4ccc(Cl)cc4nc4ccc(OC)cc34)c2c1
data-value: 102 % of control

compound: CC[N+](CC)(CC)CC
data-value: 88 % of control

compound: Cc1cccc(NC(=O)c2ccccc2)n1
data-value: 97 % of control

// query Find the measured T/C of "C1CC[N-]CC1.C1CC[N-]CC1.C1CC[N-]CC1.[Cl][Rh]([Cl])[Cl]" and report it.
// result 99 % of control

// query Find the measured T/C of ClC1CCC[N-]C1.ClC1CCC[N-]C1.O=C(O)CC(=O)O.[Pt+2] (stereo unspecified) and report it.
// result 102 % of control

// query Find the measured T/C of CC(c1ccccc1)n1ccnc1CO (stereo unspecified) and report it.
// result 96 % of control

====

Test system: CD2F1 mice, L1210 leukemia ip, survival T/C
Test: NCI In Vivo Anticancer Drug Screen. Data for tumor model L1210 Leukemia (intraperitoneal) in CD2F1 (CDF1) mice
Conditions: endpoint: mean survival time; dose: 100.0 mg/kg/injection; schedule: Q01DX001 (ip); vehicle: saline with Tween-80; higher = longer survival
Toxic doses and inconclusive results are not listed.
observation-type: T/C

Example compounds with recorded T/C:
compound: CCc1c(Br)c(CC)c(CC)c(Br)c1CC
data-value: 105 % of control
--
compound: CC(=O)c1ccc2c([N+](=O)[O-])ccc3c2c1CC3
data-value: 97 % of control
--
compound: Cc1ccc(CCF)cc1
data-value: 107 % of control
--
compound: COC(=O)C1CCC2C3CC=C4CC(O)CCC4(C)C3CCC12C (stereo not drawn)
data-value: 98 % of control
--
compound: O=C(O)C(/C=C/c1ccccc1)c1ccccc1 (stereo not drawn)
data-value: 112 % of control

// query Find the measured T/C of CC(=O)C1CCC2CC3CCCCC3N(C(C)=O)C2C1 (stereo not drawn) and report it.
// result 105 % of control

// query Find the measured T/C of "CCN(CC)c1cc(Cl)ccc1Cl" and report it.
// result 98 % of control

// query Find the measured T/C of CC(=O)NC1C(OS(=O)(=O)c2ccc(C)cc2)C(NC(C)=O)C(OC(C)=O)C(OC(C)=O)C1OC(C)=O (stereo not drawn) and report it.
// result 97 % of control

// query Find the measured T/C of "COc1ccc(C)c2nc3ccccc3nc12" and report it.
// result 98 % of control

// query Find the measured T/C of CCCCCCCCCCCCCCCCCCC(C)c1ccccc1 (stereo not drawn) and report it.
// result 101 % of control

// query Find the measured T/C of "O=C1C(=O)c2cccc3cccc1c23" and report it.
// result 100 % of control

// query Find the measured T/C of "O=[N+]([O-])c1ccccc1NS(=O)(=O)c1ccccc1" and report it.
// result 100 % of control

// query Find the measured T/C of CC1=C(C)C(C(=O)O)C1C(=O)O (stereo not drawn) and report it.
// result 88 % of control
